Reported inhibition values are given for each entry in this list.
# ASSAY INFO: endothelial E-selectin expression blockers – imaging, HUVEC, immunofluorescence, MLSMR starter and 10KST1 sets, primary screen (AID 487);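 as to inhibition: signal is fraction of cell area covered by stained E-selectin grains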
# EXPERIMENTAL CONTEXT: HUVEC TNFalpha-induced E-selectin immunofluorescence imaging, at 2 µM; stronger effect = higher value
Hi! Could you send only the number? It should be in %, unit omitted.

COMPOUND: CCC(C(=O)N1CCc2cc(OC)c(OC)cc2C1)c1ccccc1 (stereo unspecified)
VALUE UNITS: %
inhibition: 11.7
//
COMPOUND: Cc1cc2ncn(C(=O)c3c(-c4ccccc4)noc3C)c2cc1C
VALUE UNITS: %
inhibition: 25.9
//
COMPOUND: O=C(Nc1cccc2ccccc12)N1CCOCC1
VALUE UNITS: %
inhibition: -33.2
//
COMPOUND: CC(=O)Oc1ccc(-c2ccc(C(=O)O)cc2)cc1
VALUE UNITS: %
inhibition: 35.1
//
COMPOUND: CCOC(=O)CN(C(=O)c1ccccc1)c1ccccc1C
VALUE UNITS: %
inhibition: 36

Request: Recorded inhibition for CC1CCN(C(=O)CSc2nnc(Cc3cc(=O)[nH]c(=O)[nH]3)n2-c2ccc(Cl)cc2)CC1 , please?
Response: 1.4

Request: Recorded inhibition for C=C(C)c1cccc(C(C)(C)NC(=O)NCC2CCCO2)c1 (stereo unspecified) , please?
Response: -31.1

Request: Recorded inhibition for COc1cccc(N2CCN(C(=O)C3C4C=CC5(CN(Cc6ccccc6Cl)C(=O)C35)O4)CC2)c1 (stereo unspecified) , please?
Response: -66.5

Request: Recorded inhibition for CCOc1ccc(N(CC(=O)NCc2ccco2)S(=O)(=O)c2ccc(OC)c(OC)c2)cc1 , please?
Response: -45.5

Request: Recorded inhibition for FC(F)(F)c1cc(-c2ccco2)nc(N2CCOCC2)n1 , please?
Response: -83.2

Request: Recorded inhibition for CCC(=O)Nc1c(C#N)c2nc3ccccc3nc2n1-c1ccccc1C , please?
Response: -20.8

###

# ASSAY INFO: inhibitors of TNFa-induced NFkB p65 translocation, primary screen, imaging, HUVEC, MLSMR starter and 10KST1 sets (AID 438);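 also: compound added about 3h40 before a 20 min TNFalpha stimulation; signal is the nuclear over cytoplasmic p65 intensity ratio per well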
# EXPERIMENTAL CONTEXT: HUVEC TNFa-induced p65 nuclear translocation; at 2 µM, stronger effect = higher value, 0% TNFa-plus-vehicle, 100% no-TNFa wells
Reported inhibition values are given for each entry in this list.
Hi! Could you send only the number? It should be in %, unit omitted.

COMPOUND: CNC(=O)CSc1nnc(-c2cc3c(C)nn(-c4ccccc4)c3s2)n1C
READING: 4.3

COMPOUND: CCn1cc(S(=O)(=O)CC(=O)Nc2ccc(OC)cc2)c2ccccc21
READING: -2.4

COMPOUND: CCN(CC)C(=O)C1CCCN(c2ncnc3c2cnn3-c2ccc(Cl)cc2)C1 (configuration not stated)
READING: -5.2

COMPOUND: CCOC(=O)Cc1csc(/C(=N/O)C(N)=O)n1
READING: 2.7

COMPOUND: NC(=O)C1CCN(C(=S)c2cccs2)CC1
READING: 3.9

Request: Recorded inhibition for C=C(C)Cn1c(N2CCN(CC)CC2)nc2c1c(=O)[nH]c(=O)n2C , please?
Response: 14

###

# TGT: Alpha-2C adrenergic receptor (Homo sapiens) (UniProt P18825)
# Sequence (P18825 whole entry, looked up): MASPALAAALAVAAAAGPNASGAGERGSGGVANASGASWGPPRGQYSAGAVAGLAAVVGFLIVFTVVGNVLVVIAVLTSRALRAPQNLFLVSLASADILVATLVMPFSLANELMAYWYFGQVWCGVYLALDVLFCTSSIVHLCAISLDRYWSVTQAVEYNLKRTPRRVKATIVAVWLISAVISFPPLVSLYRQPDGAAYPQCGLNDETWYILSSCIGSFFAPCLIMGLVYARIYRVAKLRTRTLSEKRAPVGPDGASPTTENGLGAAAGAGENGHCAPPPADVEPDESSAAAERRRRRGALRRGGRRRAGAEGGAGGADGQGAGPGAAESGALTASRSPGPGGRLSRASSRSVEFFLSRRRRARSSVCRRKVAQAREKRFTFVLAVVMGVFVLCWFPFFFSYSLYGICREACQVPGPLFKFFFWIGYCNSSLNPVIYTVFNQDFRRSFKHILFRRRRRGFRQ
# ASSAY INFO: compounds altering alpha2C-coupled GIRK flux – cell-based, HEK293 alpha2C/GIRK1/2, thallium flux, primary screen (AID 624);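 also: slope of fluorescence ratio to pre-addition baseline per second over 15 to 24 s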
# EXPERIMENTAL CONTEXT: thallium flux BTC fluorescence, at 10 µM, actives lie on both sides
METRIC: slope
Answer field: number only, no words.

Worked examples, 3 molecules total:
MOLECULE: O=c1oc2ccccc2c2c1ncn2-c1ccccc1
slope: 0.00569

MOLECULE: OC(CN1CCN(c2ccccn2)CC1)Cn1c2ccccc2c2ccccc21 (stereo not given)
slope: 0.00493

MOLECULE: CCN(CC)S(=O)(=O)c1ccc(NC(=O)CN(c2cccc(F)c2)S(C)(=O)=O)cc1
slope: 0.00334

Request: Recorded slope for CC(C)[C@H](NC(=O)NC1CCCC1)C(=O)O , please?
Response: 0.0056

Request: Recorded slope for COc1ccc(-c2[nH]c(-c3cccc(OC)c3)nc2SCC(=O)NCc2ccco2)cc1 , please?
Response: 0.00547

Request: Recorded slope for CSc1ccc(S(=O)(=O)Nc2cccc(F)c2)cc1 , please?
Response: 0.00352

Request: Recorded slope for Cc1nc2cc(N3CCCCC3)c(NC(=O)c3cccnc3)cc2c(=O)n1Cc1ccccc1 , please?
Response: 0.00435

Request: Recorded slope for COc1ccc2ccccc2c1CN1CCN(C)CC1 , please?
Response: 0.00594

Request: Recorded slope for Cc1noc(C)c1CSc1nc2cc(S(=O)(=O)N3CCOCC3)ccc2o1 , please?
Response: 0.00432

Request: Recorded slope for CN(C)C(=O)N1CCN(C(=O)c2ccco2)CC1 , please?
Response: 0.00702

Request: Recorded slope for Cc1ccc(N=C2NC(=O)CS2)c(C)c1 , please?
Response: 0.00603

Request: Recorded slope for Cc1ccccc1NS(=O)(=O)c1cc(S(C)(=O)=O)ccc1Cl , please?
Response: 0.00562

Request: Recorded slope for O=C(CCNS(=O)(=O)c1cccc2nsnc12)Nc1ccc2c(c1)OCCO2 , please?
Response: 0.00512

Request: Recorded slope for Cc1ccc(-c2noc(COc3ccccc3C)n2)cc1 , please?
Response: 0.0049

Request: Recorded slope for COc1ccc(S(=O)(=O)N2CCN(CC(=O)Nc3ccc(C)c(F)c3)CC2)cc1 , please?
Response: 0.00517

Request: Recorded slope for CSCCC(C(=O)Nc1ccc2c(c1)OCO2)N1C(=O)c2ccccc2C1=O (stereo not given) , please?
Response: 0.006

Request: Recorded slope for COc1ccc(N2CCN(CCCNC(=O)C3CCCN(S(=O)(=O)c4cnc[nH]4)C3)CC2)cc1 (stereo not given) , please?
Response: 0.0058

Request: Recorded slope for CCCCS(=O)(=O)NC1=NCN(CCOC(=O)c2ccccc2)CN1 , please?
Response: 0.0043

Request: Recorded slope for C=CCn1c(CC#N)nnc1N1CCOCC1 , please?
Response: 0.00619

Request: Recorded slope for COC(=O)c1cc(OC)c(OC)cc1NC(=O)CCC1CCCC1 , please?
Response: 0.00682

Request: Recorded slope for COc1ccc(CN(CC(=O)NCc2ccco2)C(=O)CCC(=O)Nc2nccs2)cc1 , please?
Response: 0.00588

Request: Recorded slope for CCOC(=O)CSc1nnc([C@H](C)NC(=O)OC(C)(C)C)o1 , please?
Response: 0.00421

###

# ASSAY INFO: endothelial E-selectin expression blockers – imaging, HUVEC, immunofluorescence, MLSMR starter and 10KST1 sets, primary screen (AID 487);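 as to nuclei count: 100% = median nuclei count of all wells on the same plate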
# EXPERIMENTAL CONTEXT: HUVEC TNFalpha-induced E-selectin immunofluorescence imaging, at 2 µM; measured here: cell number, toxicity
Reported nuclei count values are given for each entry in this list.
Hi! Could you send only the number? It should be in %, unit omitted.

Request: Recorded nuclei count for O=C1N(CCCCN2C(=O)C3(OCCO3)c3ccccc32)c2ccccc2C12OCCO2 , please?
Response: 112

###

# ASSAY INFO: endothelial E-selectin expression blockers – imaging, HUVEC, immunofluorescence, MLSMR starter and 10KST1 sets, primary screen (AID 487);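 as to inhibition: signal is fraction of cell area covered by stained E-selectin grains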
# EXPERIMENTAL CONTEXT: HUVEC TNFalpha-induced E-selectin immunofluorescence imaging, at 2 µM; stronger effect = higher value
Reported inhibition values are given for each entry in this list.
Hi! Could you send only the number? It should be in %, unit omitted.

Worked examples, 5 molecules total:
MOLECULE: O=C(Nc1cccc(F)c1)C1C2C=CC3(CN(CCCN4CCOCC4)C(=O)C13)O2 (stereo unspecified)
VALUE UNITS: %
READING: -75.2

MOLECULE: Cc1cccnc1NC(=O)CCCN1C(=O)c2ccccc2C1=O
VALUE UNITS: %
READING: -32.4

MOLECULE: CC(C)[C@H](NC(=O)OC(C)(C)C)c1nnc(SCc2cccc(F)c2)o1
VALUE UNITS: %
READING: -63.9

MOLECULE: COc1ccc(OC)c(S(=O)(=O)N2c3ccccc3CC2C)c1 (stereo unspecified)
VALUE UNITS: %
READING: -32

MOLECULE: Cc1ccc(C(c2sc3ncnn3c2O)N2CC(C)CC(C)C2)cc1 (stereo unspecified)
VALUE UNITS: %
READING: -22.9

Okay, next one:
Request: Recorded inhibition for Cc1ccc(-n2ncc3c(=O)[nH]c(SC(C)C)nc32)cc1 , please?
Response: -18.4

###

Reported nuclei count values are given for each entry in this list.
# ASSAY INFO: endothelial E-selectin expression blockers – imaging, HUVEC, immunofluorescence, MLSMR starter and 10KST1 sets, primary screen (AID 487);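 as to nuclei count: 100% = median nuclei count of all wells on the same plate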
# EXPERIMENTAL CONTEXT: HUVEC TNFalpha-induced E-selectin immunofluorescence imaging, at 2 µM; measured here: cell number, toxicity
Hi! Could you send only the number? It should be in %, unit omitted.

MOLECULE: O=C(NCC1CCCO1)C1CCCN(S(=O)(=O)c2cccc3nsnc23)C1 (configuration not stated)
VALUE UNITS: %
READING: 114

MOLECULE: CCOC(=O)N1CCN(S(=O)(=O)c2ccc(OCC)c(C)c2)CC1
VALUE UNITS: %
READING: 102

Request: Recorded nuclei count for COc1ccc(-n2nnnc2SCC(=O)N2CCOCC2)cc1 , please?
Response: 114

Request: Recorded nuclei count for COc1ccc(S(=O)(=O)N2Cc3ccccc3CC2C(=O)Nc2ccc(O)cc2)cc1OC (configuration not stated) , please?
Response: 114

Request: Recorded nuclei count for Cn1c(=O)c2c(nc3sccn32)n(C)c1=O , please?
Response: 108

Request: Recorded nuclei count for COc1cccc(C2=Nn3c(nnc3-c3ccccc3O)SC2)c1 , please?
Response: 86.4

Request: Recorded nuclei count for Fc1cccc(Nc2cc(-n3cccn3)ncn2)c1 , please?
Response: 109

The origin of these recorded values is PubChem BioAssay.
